biological target: Human mTOR (FLAG-TOR) (Homo sapiens, UniProt P42345); construct: FLAG; assay: Human mTOR kinase assay with purified enzyme, DELFIA format; type: biochemical; settings: purified human mTOR enzyme, DELFIA format
pIC50: −log10 of the molar value.
observed property: pIC50

Example molecules with recorded pIC50:
Data request: Look up pIC50: O=C(Nc1ccc(-c2nc(N3CC4CCC(C3)O4)c3cnn(C4CCC5(CCCO5)CC4)c3n2)cc1)NC1CC1 (single isomer, unassigned)
Data returned: 9.31

Data request: Look up pIC50: CNC(=O)Nc1ccc(-c2nc(N3C4CCC3COC4)c3cnn(C4CCN(C(=O)OC)CC4)c3n2)cc1
Data returned: 9.66

[a] O=C1CCC(n2ncc3c(N4CC5CCC(C4)O5)nc(-c4ccc(NC(=O)NC5CC5)cc4)nc32)CC1
[b] CN1CCN(Cc2cc3nc(-c4ccc(NC(=O)NC5CC5)cc4)nc(N4CC5CCC(C4)O5)c3s2)CC1
[c] CN1CCN(C2CCC(n3ncc4c(N5CC6CCC(C5)O6)nc(-c5ccc(NC(=O)NCCF)cc5)nc43)CC2)CC1 (centres unmarked)
Data request: Kindly order the items shown according to pIC50, from the highest value down. # output: labels, in the requested order
Data returned: a, c, b
(a: 9.35, c: 8.89, b: 7.81)

Value source: patent US8129371B2
